This collection of values is drawn from patent US7118895B2.

Test system: Crude diglycosidase
Assay: Examination of temperature in the conversion into isoflavone aglycons by diglycosidase using soybean materials
Assay type: biochemical, Penicillium multicolor IAM7153
Details: 55° C., heat treatment of enzyme no, reaction time 6 h
Experimental: Into 400 μL of 20 mM acetate buffer of pH 4.0 was suspended 50 mg of each of various soybean materials (roasted soy flour (manufactured by Fuji Shokuryo K.K.), soymilk (manufactured by Gitoh Shokuhin K.K.), defatted soybean (manufactured by Fuji Seiyu K.K.), concentrated soybean protein (manufactured by Fuji Seiyu K.K.)), whereby a substrate solution was prepared. Crude diglycosidase was diluted with 20 mM acetate buffer of pH 4.0 to be the glycosidase activity of 1.88 AU/mL. […]
Examples of compounds with documented Decomposition efficiency of genistin family in defatted soybean follow.
Expressed in %, but write only the number.

Worked examples follow.
[[record]]
compound_structure = "CC(=O)OC[C@H]1O[C@@H](Oc2cc(O)c3c(=O)c(-c4ccc(O)cc4)coc3c2)[C@H](O)[C@@H](O)[C@@H]1O"
reported_value = 0.1

[[record]]
compound_structure = "O=c1c(-c2ccc(O)cc2)coc2cc(O[C@@H]3O[C@H](CO)[C@@H](O)[C@H](O)[C@H]3O)cc(O)c12"
reported_value = 0.0

[[record]]
compound_structure = "O=c1c(-c2ccc(O)cc2)coc2cc(O)cc(O)c12"
reported_value = 56.5


# evaluate next
Prompt: Record request: Decomposition efficiency of genistin family in defatted soybean value, item `O=C(O)CC(=O)OC[C@H]1O[C@@H](Oc2cc(O)c3c(=O)c(-c4ccc(O)cc4)coc3c2)[C@H](O)[C@@H](O)[C@@H]1O`
Response: 43.4
